- STUDY SYSTEM: T1, human LAG-3-His (human, UniProt P18627 23-450)
- T1 construct: Bought antigen (ArcoBiosystems), 100 nM in solution in the ForteBio assay; also called human LAG-3 antigen (ArcoBiosystems); hLAG-3; not shown: His tag
- T1 sequence (looked up): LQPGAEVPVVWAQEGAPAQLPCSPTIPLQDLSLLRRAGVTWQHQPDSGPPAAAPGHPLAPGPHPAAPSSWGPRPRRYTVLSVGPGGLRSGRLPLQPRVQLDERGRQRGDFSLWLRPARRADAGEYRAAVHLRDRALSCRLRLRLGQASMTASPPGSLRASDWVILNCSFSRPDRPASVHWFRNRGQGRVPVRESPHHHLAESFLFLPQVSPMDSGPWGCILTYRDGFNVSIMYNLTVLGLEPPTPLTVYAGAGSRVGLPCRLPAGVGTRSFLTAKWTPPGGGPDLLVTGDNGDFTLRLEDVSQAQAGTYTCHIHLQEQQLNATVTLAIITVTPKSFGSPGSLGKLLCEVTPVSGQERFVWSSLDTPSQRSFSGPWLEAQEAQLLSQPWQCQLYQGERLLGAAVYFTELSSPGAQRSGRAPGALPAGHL
- PROTOCOL TEXT: BLI (ForteBio), antibody on AHQ tip, human LAG-3-His 100 nM in solution
REPORTED ENDPOINT: koff (s⁻¹)
Give your result in s⁻¹ as a bare value.

{"BINDER": "ADI-31851 (antibody, human IgG4 S228P, kappa, F234A L235A, V domains shown, IgG4 heavy chain constant region with kappa light chain; expressed in HEK293 cells) VH: QLQLQESGPGLVKPSETLSLTCTVSGGSISSPDYYWGWIRQPPGKGLEWIGSIVYSGYTYYNPSLKSRVTISVDTSKNQFSLKLSSVTAADTAVYYCARVRTWDQSFDIWGQGTMVTVSS VL: DIQMTQSPSSLSASVGDRVTITCQAGQDISNYLNWYQQKPGKAPKLLIYDASNLETGVPSRFSGSGSGTDFTFTISSLQPEDIATYYCQQVLELPPWTFGGGTKVEIKR", "REPORTED ENDPOINT": "koff", "VALUE UNIT": "s⁻¹", "OBSERVED MEASUREMENT": 0.0002}
{"BINDER": "ADI-31853 (antibody, human IgG4 S228P, kappa, F234A L235A, V domains shown, IgG4 heavy chain constant region with kappa light chain; expressed in HEK293 cells) VH: QLQLQESGPGLVKPSETLSLTCTVSGGSIYSESYYWGWIRQPPGKGLEWIGSIVYSGYTYYNPSLKSRVTISVDTSKNQFSLKLSSVTAADTAVYYCARVRTWDAAFDIWGQGTMVTVSS VL: DIQMTQSPSSLSASVGDRVTITCQASQDISNYLNWYQQKPGKAPKLLIYDASNLETGVPSRFSGSGSGTDFTFTISSLQPEDIATYYCQQVLELPPWTFGGGTKVEIKR", "REPORTED ENDPOINT": "koff", "VALUE UNIT": "s⁻¹", "OBSERVED MEASUREMENT": 0.0002}

Using the record for BAP050 (antibody, V domains shown) VH: QIQLVQSGPELKKPGETVKISCKASGFTLTNYGMNWVRQTPGKGLKWMGWINTDTGEPTYADDFKGRFAFSLETSASTASLQINNLKNADTATYFCARNPPYYYGTNNAEAMDYWGQGTAVTVSS VL: DIQMTQTTSSLSASLGDRVTISCSSSQDISNYLNWYQQKPDGTVKVLIYYTSTLHLGVPSRFSGSGSGTDYSLTISNLELEDIATYYCQQYYNLPWTFGGGTKLEIK , report its koff.
0.0002
